# Tgt: T1, extracellular domain of human BCMA (human, UniProt Q02223 1-54)
# T1 construct: amine-linked to Octet AR2G tips; also called hsBCMA; BCMA (human)
# T1 sequence: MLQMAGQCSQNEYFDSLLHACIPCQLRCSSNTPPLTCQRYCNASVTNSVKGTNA
# Assay Overview: Octet BLI; Fab 200 nM
Value Type: koff (s⁻¹)
Write the answer as a number in s⁻¹, unit excluded.

# input Can you share its koff? I mean this binder: AB200_Fab + D99T (Fab, name in Kabat numbering, V domains shown) VH: QVQLVQSGAEVKKPGSSVKVSCKASGGTFSNYWMHWVRQAPGQGLEWMGATYRGHSDTYYNQKFKGRVTITADKSTSTAYMELSSLRSEDTAVYYCARGAIYTGYDVLDNWGQGTLVTVSS VL: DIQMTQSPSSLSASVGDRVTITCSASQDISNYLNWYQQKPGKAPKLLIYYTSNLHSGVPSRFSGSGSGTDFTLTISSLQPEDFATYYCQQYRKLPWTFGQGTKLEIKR
# output 0.0003

# input AB200_Fab + D99S (Fab, name in Kabat numbering, V domains shown) VH: QVQLVQSGAEVKKPGSSVKVSCKASGGTFSNYWMHWVRQAPGQGLEWMGATYRGHSDTYYNQKFKGRVTITADKSTSTAYMELSSLRSEDTAVYYCARGAIYSGYDVLDNWGQGTLVTVSS VL: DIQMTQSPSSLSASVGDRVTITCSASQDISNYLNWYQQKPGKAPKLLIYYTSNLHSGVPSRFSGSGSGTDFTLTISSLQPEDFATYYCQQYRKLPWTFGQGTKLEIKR ?
# output 0.00044

# input Record: AB200_Fab + D99N (Fab, name in Kabat numbering, V domains shown, also called D99N variant) VH: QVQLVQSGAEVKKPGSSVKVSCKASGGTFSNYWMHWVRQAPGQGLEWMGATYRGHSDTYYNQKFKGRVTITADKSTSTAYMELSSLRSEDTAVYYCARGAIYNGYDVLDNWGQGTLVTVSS VL: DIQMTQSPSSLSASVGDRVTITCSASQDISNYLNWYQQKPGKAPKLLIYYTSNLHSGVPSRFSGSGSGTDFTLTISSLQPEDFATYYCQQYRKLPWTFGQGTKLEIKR
# output 0.00023

# input // repeat for AB200_Fab + D99E (Fab, name in Kabat numbering, V domains shown) VH: QVQLVQSGAEVKKPGSSVKVSCKASGGTFSNYWMHWVRQAPGQGLEWMGATYRGHSDTYYNQKFKGRVTITADKSTSTAYMELSSLRSEDTAVYYCARGAIYEGYDVLDNWGQGTLVTVSS VL: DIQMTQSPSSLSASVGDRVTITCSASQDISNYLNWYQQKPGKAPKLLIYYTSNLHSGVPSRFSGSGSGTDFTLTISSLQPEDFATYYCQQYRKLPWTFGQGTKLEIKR and report
# output 0.00091

# input Again, but for AB200_Fab + D99H (Fab, V domains shown, also called AB200_D99H; D99H variant) VH: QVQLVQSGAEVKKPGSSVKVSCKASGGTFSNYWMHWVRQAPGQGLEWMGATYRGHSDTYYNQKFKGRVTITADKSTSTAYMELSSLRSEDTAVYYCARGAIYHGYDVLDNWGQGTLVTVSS VL: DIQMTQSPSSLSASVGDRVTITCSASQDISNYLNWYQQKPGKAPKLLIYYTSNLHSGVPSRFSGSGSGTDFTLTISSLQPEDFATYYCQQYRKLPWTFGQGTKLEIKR
# output 0.00037
